# Test system: K562 CRISPRi cells
# Method Notes: Constant region variant library pooled growth screen, K562
# Format: cell-based, human
# Assay Conditions: sgRNA constant region variants; activity relative to the original, un-modified constant region cr995
Recorded Metric: Mean relative activity
// keep it numeric: no unit symbol after the value

Some molecules with known Mean relative activity results, for comparison:
Exercise: Bench note: what Mean relative activity did cr143 (nucleic acid, listed as DNA, chemistry not fully specified) guide: GTTTAAGAGCTAAGCTGGAAACAGCATAGCAACTTTAAATAAGACTAGTTCGTTATCAACTTGAAAAAGTGGCACCGAGTCGGTGCT show?
Key: 0.001524

Exercise: Bench note: what Mean relative activity did cr119 (nucleic acid, listed as DNA, chemistry not fully specified) guide: GTTTAAGAGCTAAGCTGGAAACAGCATAGCAAGTTTAAATAAGGCTAGTCCGTTATCAACTTGAAAAATTGGCACCGAGTCGGTGCT show?
Key: 0.7902

We next turn to a different molecule, shown below.
Exercise: Bench note: what Mean relative activity did cr026 (nucleic acid, listed as DNA, chemistry not fully specified) guide: GTTTGATAGCTAAGCTGGAAACAGCATAGCAAGTTTAAATAAGGCTAGTCCGTTATCAACTTGAAAAAGTGGCACCGAGTCGGTGCT show?
Key: 0.6314
